Target: human GPRC5D (human, UniProt Q9NZD1 1-345)
Sequence (Q9NZD1 whole entry): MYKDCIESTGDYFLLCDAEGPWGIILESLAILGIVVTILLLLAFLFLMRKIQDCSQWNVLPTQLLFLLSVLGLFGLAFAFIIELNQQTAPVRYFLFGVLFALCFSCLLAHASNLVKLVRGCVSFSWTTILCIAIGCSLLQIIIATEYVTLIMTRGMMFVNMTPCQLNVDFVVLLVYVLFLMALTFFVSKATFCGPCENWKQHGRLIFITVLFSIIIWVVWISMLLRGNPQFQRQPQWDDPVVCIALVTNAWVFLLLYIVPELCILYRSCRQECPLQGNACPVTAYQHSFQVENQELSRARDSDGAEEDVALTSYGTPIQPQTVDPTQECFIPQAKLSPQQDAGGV
Assay: cell-based or functional assay
measured quantity: CAR-J2 EC50 [ng/mL] (PGLALA-CAR-J activation, L363 target cells) (ng/mL)

binder="P1AE5716 (antibody, V domains shown, Humanized 5E11 IgG; PGLALA Fc implied by the CAR-J assay; also called 5E11_VH1b + 5E11_VL2a) VH: ELQLLESGGGLVQPGGSLRLSCAASGFTFSKYAMAWVRQAPGKGLEWVASISTGGVNTYYRDSVKARFTISRDNAKNTLYLQMNSLRAEDTAVYYCATHTGDYFDYWGQGTMVTVSS VL: EIVLTQSPGTLSLSPGERATLSCRASQSVSISGINLMNWYQQKPGQQPRLLIYHASILASGIPDRFSGSGSGTDFTLTISRLEPEDFAVYYCQQTRESPLTFGQGTRLEIK" unit_of_measure=ng/mL value_measured=3.3
binder="P1AE5708 (antibody, V domains shown, Humanized 5E11 IgG; PGLALA Fc implied by the CAR-J assay; also called 5E11_VH1a + 5E11_VL1c) VH: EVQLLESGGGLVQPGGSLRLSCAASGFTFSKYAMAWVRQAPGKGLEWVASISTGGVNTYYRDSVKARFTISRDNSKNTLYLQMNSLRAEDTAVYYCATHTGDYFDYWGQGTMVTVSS VL: DIVMTQSPDSLAVSLGERATINCKSSQSVSISGINLMNWYQQKPGQQPKLLIYHASILASGVPDRFSGSGSGTDFTLTISSLQAEDVAVYYCQQTRESPLTFGQGTRLEIK" unit_of_measure=ng/mL value_measured=456
binder="P1AE5725 (antibody, V domains shown, Humanized 5E11 IgG; PGLALA Fc implied by the CAR-J assay; also called 5E11_VH1c + 5E11_VL3b) VH: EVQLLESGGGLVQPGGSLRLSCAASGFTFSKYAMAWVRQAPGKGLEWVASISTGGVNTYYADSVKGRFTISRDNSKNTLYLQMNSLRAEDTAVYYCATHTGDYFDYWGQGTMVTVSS VL: DIQMTQSPSSLSASVGDRVTITCRASQSVSISGINLMNWYQQKPGQQPKLLIYHASILASGVPSRFSGSGSGTDFTLTISSLQPEDFATYYCQQTRESPLTFGQGTRLEIK" unit_of_measure=ng/mL value_measured=10.9
binder="P1AE5730 (antibody, V domains shown, Humanized 5E11 IgG; PGLALA Fc implied by the CAR-J assay; also called 5E11_VH1d + 5E11_VL3a) VH: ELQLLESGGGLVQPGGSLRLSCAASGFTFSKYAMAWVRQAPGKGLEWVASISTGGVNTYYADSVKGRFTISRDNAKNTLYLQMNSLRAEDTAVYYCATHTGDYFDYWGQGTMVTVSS VL: DIQMTQSPSSLSASVGDRVTITCRASQSVSISGINLMNWYQQKPGKQPKLLIYHASILASGVPSRFSGSGSGTDFTLTISSLQPEDFATYYCQQTRESPLTFGQGTRLEIK" unit_of_measure=ng/mL value_measured=3.5
binder="P1AE5710 (antibody, V domains shown, Humanized 5E11 IgG; PGLALA Fc implied by the CAR-J assay; also called 5E11_VH1a + 5E11_VL2b) VH: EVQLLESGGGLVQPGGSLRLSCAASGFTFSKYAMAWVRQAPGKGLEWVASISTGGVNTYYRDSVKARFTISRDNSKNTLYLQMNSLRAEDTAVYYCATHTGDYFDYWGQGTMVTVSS VL: EIVLTQSPGTLSLSPGERATLSCRASQSVSISGINLMNWYQQKPGQQPKLLIYHASILASGIPDRFSGSGSGTDFTLTISRLEPEDFAVYYCQQTRESPLTFGQGTRLEIK" unit_of_measure=ng/mL value_measured=3.5

All figures here come from patent US20220259318A1.
